Let's look at some variants and their measured one-hybrid fitness for binding parS DNA.
B1: Caulobacter ParB omega fusion; a variant is named by its letters at X, in order, B8GW30 (parent)
chain: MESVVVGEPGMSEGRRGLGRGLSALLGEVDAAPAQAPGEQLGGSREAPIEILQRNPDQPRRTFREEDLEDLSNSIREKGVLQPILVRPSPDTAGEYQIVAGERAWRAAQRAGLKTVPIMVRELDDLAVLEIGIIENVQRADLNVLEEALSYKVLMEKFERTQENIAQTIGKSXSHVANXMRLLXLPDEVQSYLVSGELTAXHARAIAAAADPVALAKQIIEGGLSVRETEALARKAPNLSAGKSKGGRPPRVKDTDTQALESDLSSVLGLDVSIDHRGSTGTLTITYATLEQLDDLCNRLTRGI

# Variants of: B1
# test: one-hybrid fitness for binding parS DNA (scaled: cognate 1, non-cognate 0); higher = stronger binding
# test_settings: with parS DNA site
Over roughly 81,000 sequences, “one-hybrid fitness for binding parS DNA” has its median near -0.17; the highest 2% begin near 0.51. The list comes from a sample in which the highest values are over-represented; it also holds close analogues and randomly drawn sequences.

Look over these answered cases.
mutation_label	measurement_name	result
TMAV	one-hybrid fitness for binding parS DNA	≤ 0.2
RFMD	one-hybrid fitness for binding parS DNA	≤ 0.2
RRDK	one-hybrid fitness for binding parS DNA	≤ 0.2
RIFG	one-hybrid fitness for binding parS DNA	0.978
SMHA	one-hybrid fitness for binding parS DNA	≤ 0.2
RERT	one-hybrid fitness for binding parS DNA	0.216
KQSE	one-hybrid fitness for binding parS DNA	≤ 0.2
RRRT	one-hybrid fitness for binding parS DNA	0.597

QUERY: What value of measured one-hybrid fitness for binding parS DNA is listed for `STSS` ?
RESULT: ≤ 0.2

QUERY: Could you tell me which one-hybrid fitness for binding parS DNA is on file for `RKYC` ?
RESULT: 0.925

QUERY: one-hybrid fitness for binding parS DNA for `PVWG` ?
RESULT: ≤ 0.2

QUERY: Could you tell me which one-hybrid fitness for binding parS DNA is on file for `EAKD` ?
RESULT: ≤ 0.2

QUERY: Find the recorded one-hybrid fitness for binding parS DNA belonging to `RCTC` and report it.
RESULT: 1

QUERY: Using the record for `RSRT` , report its one-hybrid fitness for binding parS DNA.
RESULT: 0.832

QUERY: I'd like to know its one-hybrid fitness for binding parS DNA. The variant in question is `RKTC`
RESULT: 0.793

QUERY: Using the record for `RAMC` , report its one-hybrid fitness for binding parS DNA.
RESULT: 0.956

QUERY: Report one-hybrid fitness for binding parS DNA for `ARTT` please.
RESULT: ≤ 0.2

QUERY: // lookup one-hybrid fitness for binding parS DNA for `RYVK`
RESULT: ≤ 0.2

QUERY: Fill in the blank: the reported one-hybrid fitness for binding parS DNA of `RKND` is ____.
RESULT: ≤ 0.2

QUERY: // returns reported one-hybrid fitness for binding parS DNA for input `RMMC`
RESULT: 0.992

QUERY: Endpoint output: one-hybrid fitness for binding parS DNA of `RKYR` . Value?
RESULT: ≤ 0.2

QUERY: Which one-hybrid fitness for binding parS DNA is reported for this variant? `RGCM`
RESULT: ≤ 0.2
